# maps each entry to its IL-8 Secretion IC50
# study target: T1, Human recombinant soluble TWEAK (human, UniProt O43508 99-249, limits assumed)
# T1 sequence (looked up): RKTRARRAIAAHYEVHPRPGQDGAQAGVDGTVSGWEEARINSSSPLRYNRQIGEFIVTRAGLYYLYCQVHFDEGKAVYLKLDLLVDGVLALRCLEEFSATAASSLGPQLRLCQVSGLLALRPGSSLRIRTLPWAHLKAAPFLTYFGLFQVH
# assay text: cell-based or functional assay

[
  {
    "binder": "Antibody 16 (antibody, V domains shown) VH: QVQLQESGPGLVKPSETLSLTCAVSGYSIRSGYWWSWIRQPPGKGLEWIGQIYNKGNTDNSPSLKSRVTISVDTSKNQFSLKLSSVTAADTAVYYCARVFWDDAYFDVWGQGTMVTVSS VL: EIVLTQSPATLSLSPGERATLSCKASQSVSIGPIHLMHWYQQKPGQAPRLLIYGASNPESGIPARFSGSGSGTDFTLTISSLEPEDFAVYYCQQGKESPRTFGQGTKLEIK",
    "IL-8 Secretion IC50": "0.163 µg/mL"
  },
  {
    "binder": "TW205 (antibody, V domains shown, Armenian hamster monoclonal antibody; also called Antibody 205) VH: QIHLQESGLGLVKPSQSLTLTCSVTGFSITTPDYSWHWIRQFPGQTLEWMGFLYYEGDTYYNPSLKSRISIARDASKNQFFLQLKSVTTEDTATYFCVRRKYSGYGNWFAYWGQGTQVTVSS VL: QPVLTQAPSASASLRASVKLTCTLSSQHSTYYIEWYQQHPDKAPRYVMYVDSDGSHIKGDGVPDRFSGSSSGARRYLSISNLQPEDEAIYHCGVYDSTAGAVFGSGTQLTVLG",
    "IL-8 Secretion IC50": "0.151 µg/mL"
  },
  {
    "binder": "Antibody 21 (antibody, V domains shown) VH: QVQLQESGPGLVKPSETLSLTCAVSGYSIRSGYWWSWIRQPPGKGLEWIGQIYNKGNTDNNPALKSRVTISVDTSKNQFSLKLSSVTAADTAVYYCARVFWDDAYFDVWGQGTMVTVSS VL: EIVLTQSPGTLSLSPGERATLSCKASQSVSIGPIHLMHWYQQKPGQAPRLLIYGASNPESGIPDRFSGSGSGTDFTLTISRLEPEDFAVYYCQQGKESPRTFGQGTKLEIK",
    "IL-8 Secretion IC50": "0.224 µg/mL"
  }
]

These measurements were taken from patent US20100255008A1.
